Recorded values, source paper PMC10786891.

Molecular target: T1, EsCas13d, nuclease-dead (Eubacterium siraeum, UniProt B0MS50, R295A;H300A;R849A;H854A)
T1 sequence: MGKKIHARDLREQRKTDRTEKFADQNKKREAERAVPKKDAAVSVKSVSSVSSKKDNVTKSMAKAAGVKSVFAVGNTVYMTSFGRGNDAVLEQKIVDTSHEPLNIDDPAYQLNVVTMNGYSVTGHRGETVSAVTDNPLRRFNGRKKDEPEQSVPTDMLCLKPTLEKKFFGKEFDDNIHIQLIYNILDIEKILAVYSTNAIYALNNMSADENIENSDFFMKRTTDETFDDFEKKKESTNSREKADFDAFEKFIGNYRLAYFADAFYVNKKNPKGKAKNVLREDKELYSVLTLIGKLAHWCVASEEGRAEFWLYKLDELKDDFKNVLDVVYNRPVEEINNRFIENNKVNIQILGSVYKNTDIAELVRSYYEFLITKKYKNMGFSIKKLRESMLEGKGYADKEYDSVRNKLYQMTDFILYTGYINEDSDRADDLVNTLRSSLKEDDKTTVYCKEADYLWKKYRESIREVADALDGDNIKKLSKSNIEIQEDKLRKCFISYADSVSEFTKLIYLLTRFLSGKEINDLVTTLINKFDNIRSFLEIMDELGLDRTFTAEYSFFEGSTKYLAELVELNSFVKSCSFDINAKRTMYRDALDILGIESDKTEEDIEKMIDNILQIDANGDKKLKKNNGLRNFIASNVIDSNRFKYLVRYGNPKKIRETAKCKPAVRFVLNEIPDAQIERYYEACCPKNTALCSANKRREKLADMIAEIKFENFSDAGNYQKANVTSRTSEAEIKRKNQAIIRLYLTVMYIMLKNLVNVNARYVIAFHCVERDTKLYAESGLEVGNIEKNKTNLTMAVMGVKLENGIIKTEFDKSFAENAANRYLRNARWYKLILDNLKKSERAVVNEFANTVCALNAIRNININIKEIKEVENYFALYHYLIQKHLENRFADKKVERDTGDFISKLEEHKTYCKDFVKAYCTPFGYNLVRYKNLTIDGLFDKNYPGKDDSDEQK
Assay: crRNA (strand 1, pre-loaded); Mg2+; 40 mM Tris-HCl pH 7.5, 150 mM NaCl, 6 mM MgCl2, 1 mM DTT, 0.1% Tween-20, 0.2 mg/ml BSA; 25 C; 10 min per concentration, then washed
Settings: tags: His6-TwinStrep-SUMO cleaved; N-terminal SNAP kept (SNAP-Surface 488); label: 3' end held by stalled T7 RNA polymerase
Property: pKd
Formally, pKd is defined as -log10 of the concentration c, with c in mol/L.

Recorded result, target 1 MT 5'PFS UAU 3'PFS UCC (mixed) RNA 1: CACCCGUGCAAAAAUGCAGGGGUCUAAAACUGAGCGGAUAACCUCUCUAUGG RNA 2: GGGAAUGGAUCCACAUCUACGAAUUCUAUCCAUAGAGAGGUUAUCCGCUCAUCCAGAUCGGAAGAGCACACGU , pKd: 7.44

Recorded result, target 3 C6A,U7G (mixed) RNA 1: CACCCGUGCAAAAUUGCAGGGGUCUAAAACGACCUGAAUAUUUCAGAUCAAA RNA 2: GGGAAUGGAUCCACAUCUACGAAUUCGUUUUUGAUCUGAAAUAUGAAGGUCUGCAGAUCGGAAGAGCACACGU , pKd: 7.24

Recorded result, target 3 C1A,U7G (mixed) RNA 1: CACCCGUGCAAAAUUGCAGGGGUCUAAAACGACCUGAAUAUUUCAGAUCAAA RNA 2: GGGAAUGGAUCCACAUCUACGAAUUCGUUUUUGAUCUGAAAUAUGCAGGUAUGCAGAUCGGAAGAGCACACGU , pKd: 7.61
